test system: HCT116; test: AC50 cell viability (CellTiter-Glo); higher = less potent; settings: 48 h
endpointLabel: AC50 cell viability (µM)
Provide the reading as a plain figure in µM.

For the compound shown here, `C=C1/C(=C\C=C2/CCC[C@]3(C)[C@@H]([C@H](C)/C=C/[C@H](C)C(C)C)CC[C@@H]23)C[C@@H](O)C[C@@H]1O` , give the reported AC50 cell viability.
23.5

For the compound shown here, `COc1ncc(Nc2ncc([C@H](C)N3CCN([S+](C)(=O)[O-])CC3)cc2-c2nc(C)nc(N)n2)cc1F` , give the reported AC50 cell viability.
5.9

For the compound shown here, `O=C1c2ccccc2-[n+]2ccc3c([nH]c4ccccc43)c21` , give the reported AC50 cell viability.
0.742

For the compound shown here, `C[C@@H](Oc1cc(-n2cnc3ccc(CN4CCN(C)CC4)cc32)sc1C(N)=O)c1ccccc1C(F)(F)F` , give the reported AC50 cell viability.
0.0468

For the compound shown here, `CC(C)[C@@H](N(CCCN)C(=O)C1=CC=C(C)C=C1)C/2=C(\CC3=CC=CC=C3)C(=O)C4=C(O2)C=C(Cl)C=C4` , give the reported AC50 cell viability.
8.33

For the compound shown here, `N/C(=N\C(=O)c1nc(Cl)c(N)nc1N)NCc1ccccc1` , give the reported AC50 cell viability.
20.9

For the compound shown here, `CC(C)(O)c1cc2nc(-c3cnc(N)nc3)nc(N3CCOCC3)c2s1` , give the reported AC50 cell viability.
0.833

---

tested on: HCT116; assay: AC50 cell viability (CellTiter-Glo); higher = less potent; settings: 48 h
I'd be grateful if you could share measured AC50 cell viability for these entries.
Provide the reading as a plain figure in µM.

For the molecule shown here, `C[C@]12CC[C@H]3[C@@H](CC(=C)\C4=C\C(=O)\C=C/[C@]34C)[C@@H]1CCC2=O` , give the reported AC50 cell viability.
18.6

For the molecule shown here, `C/C=C(/C)C(=O)O[C@H]1C(C)=C2[C@H]([C@@H]1OC(=O)CCCCCCC)[C@@](C)(OC(C)=O)C[C@H](OC(=O)CCC)[C@@]1(O)[C@H]2OC(=O)[C@@]1(C)O` , give the reported AC50 cell viability.
0.0525

For the molecule shown here, `CC(C)(C)C1=CC(=C(NC(=O)C/2=C/NC3=C(C=CC=C3)C2=O)C=C1O)C(C)(C)C` , give the reported AC50 cell viability.
18.6

For the molecule shown here, `CNC(=O)CCc1cc(-c2ccc(-c3ccc(C(F)(F)F)cc3)cc2)n(-c2ccc(N3CCNCC3)cc2)n1` , give the reported AC50 cell viability.
6.61

For the molecule shown here, `CN(C[C@@H]1COCCO1)[S+]([O-])(=O)NC2=CC3=C(C=C2)\C=C/C4=C(C=C(C=N4)C5=C[N](C)N=C5)C3=O` , give the reported AC50 cell viability.
18.6

For the molecule shown here, `Cc1cc(F)c(C(=O)Nc2cccc(-c3nncn3C(C)C)n2)cc1-n1cnc(C2CC2)c1` , give the reported AC50 cell viability.
16.6

For the molecule shown here, O=C(CCCCCCC(=O)Nc1cccnc1)NO [Pyroxamide] , give the reported AC50 cell viability.
2.95

For the molecule shown here, COCCOC(=O)C/1=C(C)/NC/2=C(C1C3=CC=CC(=C3)O)/C(=O)CC(C2)C4=C(OC)C=CC=C4 (stereo not given) , give the reported AC50 cell viability.
14.8

For the molecule shown here, `OC(=O)C1=CC=C(NC2=NC3=C(C\N=C(/C4=CC(=CC=C34)Cl)C5=C(F)C=CC=C5F)C=N2)C=C1` , give the reported AC50 cell viability.
0.332

For the molecule shown here, `NC/1=N/C2=C([NH]C=N2)C(=S)N1` , give the reported AC50 cell viability.
0.742

For the molecule shown here, `CN(C)CCCN\C1=C\2C(=O)N(C)C(=O)\N=C2N(C)C3=C1C=CC=C3` , give the reported AC50 cell viability.
5.25

For the molecule shown here, `C/C1=C/C(=C(/CNC(=O)C2=CC(=CC3=C2C=N[N]3C4CCCC4)C5=CC=C(CN6CCOCC6)C=C5)C(=O)N1)C` , give the reported AC50 cell viability.
20.9

For the molecule shown here, `C[C@@H](Oc1cc(-c2cnn(C3CCNCC3)c2)cnc1N)c1c(Cl)ccc(F)c1Cl` , give the reported AC50 cell viability.
4.17

For the molecule shown here, `C/N=c1\ncc2cc(-c3cc(N/C(O)=N/CCC(C)(C)C)c(F)cc3C)c(C)nc2[nH]1` , give the reported AC50 cell viability.
2.63

For the molecule shown here, `NC\1=N\C(=O)N(\C=C1F)[C@H]2C[C@H](O)[C@@H](CO)O2` , give the reported AC50 cell viability.
0.105

---

test system: HCT116; assay: efficacy (fitted maximal change in viability relative to DMSO control); higher = less cytotoxic (negative = loss of viability); details: 48 h
Counter-ions that a name gives are not always drawn.
I'd be grateful if you could share measured efficacy for these entries.
Provide the reading as a plain figure in %.

For the compound shown here, `c1ccc(-c2nn3c(c2-c2ccnc4cc(OCCN5CCOCC5)ccc24)CCC3)nc1` , give the reported efficacy.
-41.1

For the compound shown here, `CN(C)[C@H]\1[C@@H]2C[C@@H]\3CC4=C(C(=C(NC(=O)CNC(C)(C)C)C=C4N(C)C)O)C(=O)C3=C(O)/[C@@]2(O)C(=O)\C(=C1O)C(N)=O` , give the reported efficacy.
-18.8

For the compound shown here, `NC(=O)c1cccc2cn(-c3ccc([C@@H]4CCCNC4)cc3)nc12` , give the reported efficacy.
-92

For the compound shown here, `COc1ccc(COc2ccc(Cc3cnc(N)nc3N)cc2OC)cc1` , give the reported efficacy.
-96.7

For the compound shown here, `Nc1nc(-c2nn(Cc3ccccc3F)c3ncccc23)ncc1C1CC1` , give the reported efficacy.
-51.2

For the compound shown here, `CN1CCN(c2ccc(OC(F)(F)F)c(Nc3ncc4c(n3)-c3c(c(C(N)=O)nn3CCO)CC4)c2)CC1` , give the reported efficacy.
-63.9

For the compound shown here, `Nc1cc(C(F)(F)F)c(-c2cc(N3CCOCC3)nc(N3CCOCC3)n2)cn1` , give the reported efficacy.
-71.8

For the compound shown here, `Fc1cc(-c2cccc3ncc(-c4cnn(C5CCNCC5)c4)nc23)cc(F)c1CN1CCOCC1` , give the reported efficacy.
-91

For the compound shown here, CN1C(=O)COc2c(C(=O)NC3CN4CCC3CC4)cc(Cl)cc21 (stereo not given) [Azasetron hydrochloride] , give the reported efficacy.
21.5

For the compound shown here, Cc1ncc(Cl)cc1NCc1ccc(C(=O)NC(CC2CCCC2)C(=O)NC2CC2)s1 (stereo not given) , give the reported efficacy.
-78.2

For the compound shown here, `O=C(O)CNC(=O)c1nc(Cl)c2ccccc2c1O` , give the reported efficacy.
-7.52

For the compound shown here, `CN(C)C(=O)c1ccc([S+](=O)([O-])c2ccc(NC(=O)[C@@](C)(O)C(F)(F)F)c(Cl)c2)cc1` , give the reported efficacy.
-33.1

For the compound shown here, `CC[C@]12\C=C/CN3CC[C@]4([C@@H](N(C)C5=CC(=C(C=C45)[C@]6(C[C@H]7C[C@H](CN(C7)CC8=C6[NH]C9=C8C=CC=C9)C(C)(F)F)C(=O)OC)OC)[C@](O)([C@@H]1OC(C)=O)C(=O)OC)[C@H]23` , give the reported efficacy.
-64.1

For the compound shown here, CC[C@]12\C=C/CN3CC[C@]4([C@@H](N(C)C5=C4C=C(C(=C5)OC)[C@]6(CC7C[C@H](CN(C7)CC8=C6[NH]C9=C8C=CC=C9)C(C)(F)F)C(=O)OC)[C@](O)([C@@H]1OC(C)=O)C(=O)OC)[C@H]23 (stereo not given in full) [Vinflunine (Tartrate)] , give the reported efficacy.
-67.8

For the compound shown here, `C[C@@H]1CC(=O)Nc2cccc(-c3cnn(C(C)(C)C)c3)c2N1` , give the reported efficacy.
-37.4

---

test system: HCT116; experiment: efficacy (fitted maximal change in viability relative to DMSO control); higher = less cytotoxic (negative = loss of viability); conditions: 48 h
endpointLabel: efficacy (%)
Provide the reading as a plain figure in %.

For the compound shown here, CN(C)/N=N/c1nc[nH]c1C(N)=O [Dacarbazine] , give the reported efficacy.
-45.8

For the compound shown here, `CCN(CC)C(=O)Cc1csc(N[S+](=O)([O-])c2cccc(Cl)c2C)n1` , give the reported efficacy.
-27.3

For the compound shown here, `CC(C)(N[S+](=O)([O-])c1ccc2c(Cl)cnc(NC(=N)N)c2c1)C(=O)O` , give the reported efficacy.
-7.17

For the compound shown here, O=C(/C=C/c1ccc(CN(CCO)CCc2c[nH]c3ccccc23)cc1)NO [Dacinostat] , give the reported efficacy.
-89.1

For the compound shown here, CCC(CCCC)COC(=O)C(\C#N)=C(\c1ccccc1)c2ccccc2 (stereo not given) [Octocrylene] , give the reported efficacy.
-31.5

Hello, the source for this data is the supplement of paper PMC10290057, in case you need it.
